Would you kindly list %Inh for each of these compounds?
Test system: CDK4-cyclinD3;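 further: KINOMEscan kinase panel screen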
Conditions: concentration: 1 μM, replicates: in singlicate; n = 1
Numbers only, in %.

The following compounds have reported results that may help.
compound=Fc1ccc(-c2ncn(C3CCNCC3)c2-c2ccnc(Oc3ccc(-c4ccccc4)cc3)n2)cc1 unitinfo=% recordednumber=34
compound=FC(F)(F)c1ccc(/C=C/c2cncnc2Nc2ccc3[nH]c(Cc4ccccc4)nc3c2)cc1 unitinfo=% recordednumber=0
compound=COc1cccc(C(=O)Nc2cccc(Oc3ccc4nc(NC(=O)C5CC5)cn4n3)c2)c1 unitinfo=% recordednumber=0
compound="O=C(NC1CCN(c2ccnc(Nc3ccc(F)cc3)n2)C1)c1cc2ccccc2s1 (centres unmarked)" unitinfo=% recordednumber=0
compound=O=C(Nc1n[nH]c2nc(-c3ccc(O)cc3)ccc12)C1CC1 unitinfo=% recordednumber=78

Hello, I would appreciate it if you could give %Inh for each entry below.
1. COCCOCCOc1cc2ncc3c4ccc(C#N)cc4[nH]c3c2cc1OC
2. CC(=O)Nc1nc2cnc(Nc3cc(NC(=O)c4cccc(C5(C#N)CC5)c4Cl)ccc3C)nc2s1
3. COC(=O)Nc1nc2cc(Oc3ccc(NC(=O)Nc4cc(C(F)(F)F)ccc4F)cn3)ccc2[nH]1.Cl.Cl

Data returned:
[39, 0, 0]
